Data credit: ChEMBL document CHEMBL4665890

Known microsomal CLint of a selection of molecules
# PROTOCOL_SUMMARY: in vitro
# CONDITIONS_USED: human, liver microsomes
# Description: Metabolic stability in human liver microsomes

Below are worked cases with known answers.
Cn1cc(Nc2nc(N[C@H]3CC[C@H](N(C)C)CC3)c3cccn3n2)cn1	< 3 µL/min/mg
CC(=O)c1ccc(N2CCN(C(=O)c3cnn(C)c3)CC2)cc1	< 3 µL/min/mg
CC(=O)c1ccc(N2CCN(C(=O)c3cnn(C(C)(C)C)c3)CC2)cc1	< 4.5 µL/min/mg
Cn1c(-c2cscn2)nc2ccccc21	172 µL/min/mg

Lab note: next molecule to report on.
Request: Any idea what microsomal CLint was measured for CC(C)n1cc(Nc2nc(N[C@H]3CC[C@H](N(C)C)CC3)c3cccn3n2)cn1 ?
Result: < 3 µL/min/mg

###

# PROTOCOL_SUMMARY: in vitro
# CONDITIONS_USED: human, Caco-2
# Description: Passive permeability from apical to basolateral side in human Caco-2 cells
MEASUREMENT_TYPE: Papp A→B (×10⁻⁶ cm/s)
Write it as a number; the unit ×10⁻⁶ cm/s goes unstated.

COc1ccc(CC(=O)Nc2cnn(C(F)(F)F)c2)cc1OC	56
CC(=O)c1ccc(N2CCN(C(=O)c3cnn(C)c3)CC2)cc1	42
Cc1ccc(-c2cn(C)cn2)cc1NC(=O)c1ccc(OCc2ccccn2)cc1	72

Lab note: next molecule to report on.
Request: Any idea what Papp A→B was measured for CC(=O)c1ccc(N2CCN(C(=O)c3cnn(C(C)(C)C)c3)CC2)cc1 ?
Result: 66

###

# PROTOCOL_SUMMARY: physchem
# CONDITIONS_USED: 20 mM sodium carbonate buffer, pH 10
# Description: Half life in 20 mM sodium carbonate buffer at pH 10 at 25 degC by UPLC analysis
MEASUREMENT_TYPE: half-life

Request: Any idea what half-life was measured for COc1ccc(CC(=O)Nc2cnn(C(F)(F)F)c2)cc1OC ?
Result: > 72 days

Request: Record: CCCCN(c1ccc(C(=O)OCCN(C)C)cc1)C(F)(F)F
Result: < 0.6 days

Request: Record: CCCc1nn(C)c2c(=O)[nH]c(-c3cc(S(=O)(=O)N4CCN(C(F)(F)F)CC4)ccc3CC)nc12
Result: < 0.5 days

Request: Record: FC(F)(F)n1c(-c2cscn2)nc2ccccc21
Result: > 72 days

###

# PROTOCOL_SUMMARY: in vitro
# CONDITIONS_USED: human, liver microsomes
Known microsomal CLint of a selection of compounds

Below are worked cases with known answers.
CC(=O)c1ccc(N2CCN(C(=O)c3cnn(C(C)C)c3)CC2)cc1	< 4.2 µL/min/mg
COc1ccc(CC(=O)Nc2cnn(C(C)C)c2)cc1OC	< 3.3 µL/min/mg

Lab note: next compound to report on.
Request: Any idea what microsomal CLint was measured for CN(C)[C@H]1CC[C@H](Nc2nc(Nc3cnn(C(C)(C)C)c3)nn3cccc23)CC1 ?
Result: < 3 µL/min/mg

###

Known half-life of a selection of molecules
# PROTOCOL_SUMMARY: physchem
# CONDITIONS_USED: 20 mM sodium phosphate buffer, pH 7.4
# Description: Half life in 20 mM sodium phosphate buffer at pH 7.4 at 25 degC by UPLC analysis

COc1ccc(CC(=O)Nc2cnn(C(F)(F)F)c2)cc1OC	> 72 days

Request: Any idea what half-life was measured for CC(=O)c1ccc(N2CCN(C(=O)c3cnn(C(F)(F)F)c3)CC2)cc1 ?
Result: > 72 days

Request: Record: CCCc1nn(C)c2c(=O)[nH]c(-c3cc(S(=O)(=O)N4CCN(C(F)(F)F)CC4)ccc3CC)nc12
Result: < 0.8 days

Request: Record: Cc1cc(NS(=O)(=O)c2ccc(N(C)C(F)(F)F)cc2)no1
Result: 0.4 days

Request: Record: CN(C)[C@H]1CC[C@H](Nc2nc(Nc3cnn(C(F)(F)F)c3)nn3cccc23)CC1
Result: > 72 days

###

# PROTOCOL_SUMMARY: physchem
# CONDITIONS_USED: buffer, pH 7.4
// returns rule not met unless logD is strictly below 2, in which case rule met

Recorded results for 3 molecules are shown here.
CCCc1nn(C)c2c(=O)[nH]c(-c3cc(S(=O)(=O)N4CCN(C)CC4)ccc3CC)nc12	rule not met
CC(=O)c1ccc(N2CCN(C(=O)c3cnn(C(F)(F)F)c3)CC2)cc1	rule met
Cc1ccc(-c2cn(C)cn2)cc1NC(=O)c1ccc(OCc2ccccn2)cc1	rule not met

Request: Problem: For the molecule COc1ccc(CC(=O)Nc2cnn(C)c2)cc1OC , is logD under 2?
Result: rule met

Request: Record: CC(C)n1cc(Nc2nc(N[C@H]3CC[C@H](N(C)C)CC3)c3cccn3n2)cn1
Result: rule met

Request: Record: CCCCN(C)c1ccc(C(=O)OCCN(C)C)cc1
Result: rule not met

Request: Record: CC(=O)c1ccc(N2CCN(C(=O)c3cnn(C)c3)CC2)cc1
Result: rule met

Request: Record: FC(F)(F)n1c(-c2cscn2)nc2ccccc21
Result: rule not met

###

# PROTOCOL_SUMMARY: physchem
# CONDITIONS_USED: buffer, pH 7.4
Known logD of a selection of compounds

Below are worked cases with known answers.
CCCCN(c1ccc(C(=O)OCCN(C)C)cc1)C(F)(F)F	> 4
CN(C)[C@H]1CC[C@H](Nc2nc(Nc3cnn(C(C)(C)C)c3)nn3cccc23)CC1	1.7
CN(C)[C@H]1CC[C@H](Nc2nc(Nc3cnn(C(F)(F)F)c3)nn3cccc23)CC1	2.2

Lab note: next compound to report on.
Request: Any idea what logD was measured for Cc1cc(NS(=O)(=O)c2ccc(N(C)C)cc2)no1 ?
Result: 0.6
